Data origin: BindingDB's records for doi:10.1016/j.bioorg.2015.02.005

Target: Adenosine receptor A1 (Rattus norvegicus)
Sequence (P25099 whole entry): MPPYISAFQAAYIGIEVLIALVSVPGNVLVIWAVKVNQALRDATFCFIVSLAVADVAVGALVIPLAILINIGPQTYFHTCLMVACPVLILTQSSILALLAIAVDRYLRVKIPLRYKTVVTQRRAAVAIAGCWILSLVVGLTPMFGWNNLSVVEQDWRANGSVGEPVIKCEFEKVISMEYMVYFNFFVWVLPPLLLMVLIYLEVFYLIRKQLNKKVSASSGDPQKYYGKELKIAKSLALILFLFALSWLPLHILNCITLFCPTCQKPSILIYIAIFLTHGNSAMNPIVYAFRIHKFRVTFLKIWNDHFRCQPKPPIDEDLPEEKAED
pKi: −log10 of the molar value.
endpoint: pKi

* O=C1NC(=O)c2cc(SCc3ccc(Br)cc3)ccc21 | 6.17
